target-of-assay: Protein farnesyltransferase subunit beta/geranylgeranyltransferase type-1 subunit alpha (Bos taurus, UniProt P29702+P49355)
test-description: FTase Activity Assay
condition-summary: pH 7.5; 37 °C
measure-name: IC50 (nM)

(a) Cn1cncc1C(O)(c1ccc(Cl)cc1)c1ccc2ccn(-c3cccc(Cl)c3)c2c1 (configuration not stated)
(b) Cn1cncc1C(O)(c1ccc(Cl)cc1)c1ccc2ccn(-c3cccc4ccccc34)c2c1 (configuration not stated)
Pick the one with the larger IC50: a vs b Could you answer with the label of the item you picked?
b
